biological target: GLP-1R (Homo sapiens, UniProt P43220); construct: host or cells: GLP-1R CRE-bla CHO-K1 cells; assay: EC20 GLP-1(9-36) PAM cAMP assay: dose response of compound in the presence of fixed concentration of GLP-1(9-36); format: cell-based; settings: GLP-1R CRE-bla CHO-K1 cells, compound dose response with fixed concentration of GLP-1(9-36), read-out: EC20 GLP-1(9-36) PAM EC50
Sequence (P43220 24-463): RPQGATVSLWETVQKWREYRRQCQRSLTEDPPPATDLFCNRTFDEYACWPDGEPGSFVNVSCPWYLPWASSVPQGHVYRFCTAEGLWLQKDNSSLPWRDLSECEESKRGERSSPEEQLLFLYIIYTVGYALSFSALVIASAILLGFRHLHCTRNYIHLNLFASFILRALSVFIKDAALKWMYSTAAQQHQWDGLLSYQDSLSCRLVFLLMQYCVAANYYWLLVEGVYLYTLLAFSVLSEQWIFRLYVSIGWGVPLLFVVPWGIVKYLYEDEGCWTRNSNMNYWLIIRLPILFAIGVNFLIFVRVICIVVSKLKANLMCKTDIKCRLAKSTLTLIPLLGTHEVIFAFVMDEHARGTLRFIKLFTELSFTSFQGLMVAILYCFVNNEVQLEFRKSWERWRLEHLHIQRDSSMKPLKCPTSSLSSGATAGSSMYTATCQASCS
Sequence (P01275 100-127 partner limits assumed): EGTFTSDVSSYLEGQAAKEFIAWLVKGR
measuredEndpoint: EC50

CC[C@H]1CC[C@H](c2ccc(-c3cnc(-c4ccc(C[C@H](NC(=O)c5ccc(S(C)(=O)=O)cc5)C(=O)O)cc4)nc3)cc2)CC1 [Compound 1379] ... < 800 nM

Query block: System GLP-1R (Homo sapiens, UniProt P43220). Read-out EC50. Item CC(C)CCCOc1ccc(-c2cnc(-c3ccc(C[C@H](NC(=O)c4ccc(C(C)(C)C)nc4)C(=O)N4CC(C(=O)O)C4)cc3)nc2)cc1 [Compound 1231] . Report value.
Result block: 800 to 2500 nM

Query block: System GLP-1R (Homo sapiens, UniProt P43220). Read-out EC50. Item CC[C@H]1CC[C@H](c2ccc(-c3cnc(-c4ccc(C[C@H](NC(=O)c5ccc(C(C)(C)C#N)s5)C(=O)O)cc4)nc3)cc2)CC1 [Compound 1373] . Report value.
Result block: < 800 nM

Query block: System GLP-1R (Homo sapiens, UniProt P43220). Read-out EC50. Item CC[C@H]1CC[C@H](c2ccc(-c3cnc(-c4ccc(C[C@H](NC(=O)c5ccc(C(C)(C)C)cc5)C(=O)O)cc4)nc3)cc2)CC1 [Compound 1366] . Report value.
Result block: < 800 nM

Query block: System GLP-1R (Homo sapiens, UniProt P43220). Read-out EC50. Item CCOc1ccc(/C=C/c2cnc(-c3ccc(C[C@H](NC(=O)c4ccc(C(C)(C)C)s4)C(=O)N[C@H](C)C(=O)O)cc3)nc2)cc1 [Compound 1258] . Report value.
Result block: 800 to 2500 nM

Query block: System GLP-1R (Homo sapiens, UniProt P43220). Read-out EC50. Item CC[C@H]1CC[C@H](c2ccc(-c3cnc(-c4ccc(C[C@H](NC(=O)c5ccc(OC(C)C)cc5)C(=O)O)cc4)nc3)cc2)CC1 [Compound 1382] . Report value.
Result block: 800 to 2500 nM

---

biological target: GLP-1R (Homo sapiens); construct: host or cells: GLP-1R CRE-bla CHO-K1 cells; assay: EC20 GLP-1(9-36) PAM cAMP assay: dose response of compound in the presence of fixed concentration of GLP-1(9-36); assay type: cell-based; details: GLP-1R CRE-bla CHO-K1 cells, compound dose response with fixed concentration of GLP-1(9-36), read-out: EC20 GLP-1(9-36) PAM EC50
measuredEndpoint: EC50

Query block: System GLP-1R (Homo sapiens). Read-out EC50. Item C[C@@H](NC(=O)[C@H](Cc1ccc(-c2ncc(-c3ccc(N4CCOCC4)cc3)cn2)cc1)NC(=O)c1ccc(C(C)(C)C)s1)C(=O)O . Report value.
Result block: 800 to 2500 nM

Query block: System GLP-1R (Homo sapiens). Read-out EC50. Item C[C@@H](NC(=O)[C@H](Cc1ccc(-c2ncc(-c3ccc(-c4ccc(Cl)cc4)cc3)cn2)cc1)NC(=O)c1ccc(C(C)(C)C)s1)C(=O)O . Report value.
Result block: < 800 nM

Query block: System GLP-1R (Homo sapiens). Read-out EC50. Item Cc1ccc(-c2ccc(-c3cnc(-c4ccc(C[C@H](NC(=O)c5ccc(C(C)(C)C)s5)C(=O)N[C@H](C)C(=O)O)cc4)nc3)s2)cc1 . Report value.
Result block: 5000 to 10000 nM

Query block: System GLP-1R (Homo sapiens). Read-out EC50. Item CCC[C@H]1CC[C@H](C2CCN(c3cnc(-c4ccc(C[C@H](NC(=O)c5ccc(C(C)(C)C)s5)C(=O)N[C@@H](CCCNC(=N)N)C(=O)O)cc4)nc3)CC2)CC1 . Report value.
Result block: < 800 nM

Query block: System GLP-1R (Homo sapiens). Read-out EC50. Item CC(C)(C)c1ccc(C(=O)N[C@@H](Cc2ccc(-c3ncc(-c4ccc(-c5ccccc5C(F)(F)F)cc4F)cn3)cc2)C(=O)N2CC(C(=O)O)C2)s1 . Report value.
Result block: < 800 nM

Query block: System GLP-1R (Homo sapiens). Read-out EC50. Item CC[C@H]1CC[C@H](c2ccc(-c3cnc(-c4ccc(C[C@@H](NC(=O)c5ccc(C(C)(C)C)s5)C(=O)O)cc4)nc3)cc2)CC1 . Report value.
Result block: 800 to 2500 nM

---

Recorded EC50 values for a group of compounds are listed next.
biological target: GLP-1R (Homo sapiens, UniProt P43220); construct: host or cells: GLP-1R CRE-bla CHO-K1 cells; assay: EC20 GLP-1(9-36) PAM cAMP assay: dose response of compound in the presence of fixed concentration of GLP-1(9-36); format: cell-based; settings: dose response of compound in presence of fixed concentration of GLP-1(9-36), GLP-1R CRE-bla CHO-K1 cells, read-out: EC20 GLP-1(9-36) PAM EC50

Sample answers from the record:
CCCCCCOc1cccc(-c2noc(-c3cnc(-c4ccc(C[C@H](NC(=O)c5ccc(C(C)(C)C)cc5)C(=O)NCCC(=O)O)cc4)nc3)n2)c1 ... 0.8 to 2.5 µM
Cc1ccc(-c2ccc(-c3cnc(-c4ccc(C[C@H](NC(=O)c5ccc(C(C)(C)C)s5)C(=O)N[C@H](C)C(=O)O)cc4)nc3)c(F)c2)cc1 ... 0.8 to 2.5 µM
CCCCCCCOc1ccc(-c2cnc(-c3ccc(C[C@H](NC(=O)c4ccc(C(C)(C)C)cc4)C(=O)NC(C)(C)C(=O)O)cc3)nc2)cc1 ... 0.8 to 2.5 µM
CCCCCCCOc1ccc(-c2cnc(-c3ccc(C[C@H](NC(=O)c4ccc(C(C)(C)C)s4)C(=O)N[C@H](C(=O)O)[C@@H](O)c4ccccc4)cc3)nc2)cc1 ... 0.8 to 2.5 µM

Query block: Look up EC50 of CCCCCCCOc1ccc(-c2cnc(-c3ccc(C[C@H](NC(=O)c4ccc(CC)s4)C(=O)N4CC[C@H](C(=O)O)C4)cc3)nc2)cc1 and report it.
Result block: 0.8 to 2.5 µM

Query block: Look up EC50 of CC(C)(C)c1ccc(-c2cnc(-c3ccc(CC(NC(=O)c4ccc(C(C)(C)C)s4)C(=O)O)cc3F)nc2)cc1 (stereo not drawn) and report it.
Result block: 2.5 to 5 µM

---

Recorded EC50 values for a group of compounds are listed next.
molecular target: GLP-1R (Homo sapiens, UniProt P43220); construct: host or cells: GLP-1R CRE-bla CHO-K1 cells; experiment: EC20 GLP-1(9-36) PAM cAMP assay: dose response of compound in the presence of fixed concentration of GLP-1(9-36); type: cell-based; details: dose response of compound in presence of fixed concentration of GLP-1(9-36), GLP-1R CRE-bla CHO-K1 cells, read-out: EC20 GLP-1(9-36) PAM EC50

Sample answers from the record:
CCCCOc1c(OC)ccc(-c2cnc(-c3ccc(C[C@H](NC(=O)c4ccc(C(C)(C)C)s4)C(=O)N[C@H](C)C(=O)O)cc3)nc2)c1F [Compound 1022] ... 2500 to 5000 nM
CCCCCCCOc1ccc(-c2cnc(-c3ccc(C[C@H](NC(=O)c4ccc(C(C)(C)C)cc4)C(=O)N[C@@H](CC(=O)NCCN(C)C)C(=O)O)cc3)nc2)cc1 [Compound 485] ... 5000 to 10000 nM
CC(C)(C)c1ccc(C(=O)N[C@@H](Cc2ccc(-c3ncc(-c4nc(-c5ccc(Cl)c(Cl)c5)no4)cn3)cc2)C(=O)NCCC(=O)O)cc1 [Compound 752] ... 5000 to 10000 nM
CCCCCCCOc1ccc(-c2cnc(-c3ccc(C[C@H](NC(=O)c4ccc(C5CC5)s4)C(=O)N4CC[C@H](C(=O)O)C4)cc3)nc2)cc1 [Compound 865] ... 800 to 2500 nM
C/C=C/CCCOc1ccc(-c2cnc(-c3ccc(C[C@H](NC(=O)c4ccc(C(C)C)cc4)C(=O)NCCC(=O)O)cc3)nc2)cc1 [Compound 714] ... 2500 to 5000 nM
CCCCCCCOc1ccc(-c2cnc(-c3ccc(C[C@H](NC(=O)c4ccc(C(C)(C)C)cc4)C(=O)NC(Cc4cscn4)C(=O)O)cc3)nc2)cc1 (some centres unmarked) [Compound 544] ... < 800 nM
C[C@@H](NC(=O)[C@H](Cc1ccc(-c2ncc(-c3ccc(Oc4ccccc4)cc3)cn2)cc1)NC(=O)c1ccc(C(C)(C)C)s1)C(=O)O [Compound 1000] ... 5000 to 10000 nM
CCCCCCCOc1ccc(-c2cnc(-c3ccc(C[C@H](NC(=O)c4cc5c(s4)CCC(C)C5)C(=O)N[C@H](C)C(=O)O)cc3)nc2)cc1 (some centres unmarked) [Compound 814] ... 800 to 2500 nM
CCCCCCCOc1ccc(-c2cnc(-c3ccc(C[C@H](NC(=O)c4ccc(C(C)(C)C)cc4)C(=O)N4CC[C@H](N)[C@@H](C(=O)O)C4)cc3)nc2)cc1 [Compound 582] ... 800 to 2500 nM
CCCCCCCOc1ccc(-c2cnc(-c3ccc(C[C@H](NC(=O)c4ccc(C(C)(C)C)s4)C(=O)N[C@H](C(=O)O)[C@H](C)O)cc3)nc2)cc1 [Compound 646] ... < 800 nM

Query block: System GLP-1R (Homo sapiens, UniProt P43220). Read-out EC50. Item Cc1cc(-c2cnc(-c3ccc(C[C@H](NC(=O)c4ccc(C(C)(C)C)s4)C(=O)N4CC(C(=O)O)C4)cc3)nc2)ccc1OC(C)C [Compound 1093] . Report value.
Result block: < 800 nM

Query block: System GLP-1R (Homo sapiens, UniProt P43220). Read-out EC50. Item CCCCCCCOc1ccc(-c2cnc(-c3ccc(C[C@H](NC(=O)c4ccc(C(C)(C)C)cc4)C(=O)N[C@H](CCCCN)C(=O)O)cc3)nc2)cc1 [Compound 466] . Report value.
Result block: 800 to 2500 nM

Query block: System GLP-1R (Homo sapiens, UniProt P43220). Read-out EC50. Item C[C@@H](NC(=O)[C@H](Cc1ccc(-c2ncc(-c3ccc(C4CCC(F)(F)CC4)cc3)cn2)cc1)NC(=O)c1ccc(C(C)(C)C)s1)C(=O)O [Compound 1142] . Report value.
Result block: < 800 nM

Reference source: patent US10034886B2
